z-score overview
test: PSAC antagonists in infected red cells, primary screen, cell-based, P. falciparum Indochina, OD700, 18 h (AID 1157); conditions: P. falciparum Indochina infected erythrocytes, osmotic lysis OD700, 18 h; higher = more signal, called active from +8 up or from −8 down
Provide a numeric answer; units are not to be included.

Solved entries (count: 5):
compoundSmiles	z-score
COCCCNC(=O)[C@@]1(Sc2ccc(C)cc2)CC(=O)N(C2CCCCC2)[C@@H]1c1ccc(CO)cc1	0.326
Cc1ccc(S[C@]2(C(=O)NCCCN(C)C)CC(=O)N(C3CCCCC3)[C@@H]2c2ccc(CO)cc2)cc1	0.819
O=C(NCc1ccccc1)[C@@H]1c2ccccc2C(=O)N(Cc2ccccc2C(F)(F)F)[C@H]1c1ccc(CO)cc1	0.207
COC(=O)CCCCCCC(=O)Nc1ccc(NC(=O)CCCC[P+](c2ccccc2)(c2ccccc2)c2ccccc2)cc1	1.43
CN(C)CCCNC(=O)[C@@H]1c2ccccc2C(=O)N(Cc2ccccc2Cl)[C@H]1c1ccc(CO)cc1	0.599

Memo: COc1ccc(-c2cc3c(c(CCc4ccccc4)n2)[Si](C(C)C)(C(C)C)OC3)cn1 , reported z-score: 0.114

Memo: CCCCCCc1nc(C2CC2)cc2c1[Si](C(C)C)(C(C)C)O[C@H]2c1ccccc1 , reported z-score: -0.11

Memo: CCOC(=O)C[C@H]1[C@H](OC(=O)c2cc3ccccc3oc2=O)[C@@H](NC(=O)Cc2ccc(OC)cc2)c2cc(OCCCO)ccc2N1C(=O)c1ccc2ccccc2n1 , reported z-score: 0.305

Memo: COc1ccc(CCNC(=O)[C@@]2(Sc3ccc(C)cc3)CC(=O)N(C3Cc4ccccc4C3)[C@@H]2c2ccc(CO)cc2)cc1 , reported z-score: -0.874

###

target: Left-right determination factor 2 (Homo sapiens) (UniProt O00292); assay: LEFTY2 binders on small-molecule microarrays, primary screen, biochemical, small-molecule microarray, 635 nm fluorescence scan (AID 1110); conditions: LEFTY2 binding, higher = more signal
Sequence (O00292 whole entry, looked up): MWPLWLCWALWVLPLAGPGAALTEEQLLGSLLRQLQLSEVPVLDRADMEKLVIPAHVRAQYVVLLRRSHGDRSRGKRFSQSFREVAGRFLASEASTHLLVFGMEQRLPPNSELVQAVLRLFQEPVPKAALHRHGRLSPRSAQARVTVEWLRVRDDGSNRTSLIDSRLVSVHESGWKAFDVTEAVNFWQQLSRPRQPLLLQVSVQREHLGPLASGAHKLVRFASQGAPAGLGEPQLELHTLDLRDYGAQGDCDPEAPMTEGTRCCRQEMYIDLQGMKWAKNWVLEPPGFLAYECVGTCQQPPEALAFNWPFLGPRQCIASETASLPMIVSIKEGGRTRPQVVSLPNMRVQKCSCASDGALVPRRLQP
composite z-score overview
Provide a numeric answer; units are not to be included.

Solved entries (count: 5):
compoundSmiles	targetOfAssay	readoutNumber
O=c1n(-c2ccccc2)c(=O)n2n1CC(COc1ccccc1)=C([C@H](O)CCc1ccccc1)[C@@H]2CO	Left-right determination factor 2 (Homo sapiens) (UniProt O00292)	0.892
COc1cc(CO)cc(I)c1O[C@H]1C=C(C(=O)NCCO)C[C@@H](NCc2ccc(F)cc2)[C@@H]1O	Left-right determination factor 2 (Homo sapiens) (UniProt O00292)	0.275
COCCOC(=O)N1C(=O)[C@@]2(c3cc(C#CCCO)ccc31)[C@H](c1ccccc1OCCO)N1[C@H](c3ccccc3)[C@H](c3ccccc3)OC(=O)[C@H]1[C@@H]2C(=O)Nc1nc2ccccc2s1	Left-right determination factor 2 (Homo sapiens) (UniProt O00292)	0.558
[N-]=[N+]=NCc1ccccc1C[C@@]1(C(=O)NCc2ccccc2)N=C(c2ccc(OCCCO)cc2)O[C@@H]1c1ccccc1N=[N+]=[N-]	Left-right determination factor 2 (Homo sapiens) (UniProt O00292)	-0.346
COc1ccccc1CN1C(=O)c2ccccc2[C@@]2(Cc3ccccc3N(CC(F)(F)F)C2=O)[C@@H]1c1ccc(CO)cc1	Left-right determination factor 2 (Homo sapiens) (UniProt O00292)	0.244

Memo: CC(C)[Si](C#CCCCC#N)(O[C@H](c1ccccc1)c1cn([C@H](CO)Cc2ccccc2)nn1)C(C)C , reported composite z-score: 0.36

The measured values listed here are drawn from PubChem BioAssay.
